- PROCEDURE_TEXT: Plasma protein binding in mouse assessed as unbound fraction incubated for 4 hrs by LC-MS/MS analysis
- Format: ADME, cell-free
MEASURE: fraction unbound at 4 h
// response body must contain only the number

I have this molecule here, `CC(=O)N1CCN(c2cc3c(N[C@H](C)c4cccc(C(F)F)c4F)ccnc3cn2)CC1` , and I need its recorded fraction unbound at 4 h.
0.0675

====

- PROCEDURE_TEXT: AUC in ICR mouse at 5 mg/kg, po measured upto 24 hrs by LCMS analysis
- Format: ADME, organism-based
- PARTICULARS: in vivo
Below is a list of entries, each paired with its recorded log10 of AUC at 24 h value.
Could you please treat all values as log10 of AUC at 24 h in ng·h/mL?

For orientation, consider the following solved cases.
COc1cc2nccc(N[C@H](C)c3cccc(C(F)F)c3F)c2cc1N1CCS(=O)(=O)CC1 = 1.46
COc1cc2nccc(N[C@H](C)c3cccc(C(F)F)c3F)c2cc1O[C@H]1CCN(C(C)=O)C1 = 2.18
CC(=O)N1CCN(c2cc3c(N[C@H](C)c4cccc(C(F)F)c4F)ccnc3cn2)CC1 = 3.29
C[C@@H](Nc1ccnc2cnc(N3CCS(=O)(=O)CC3)cc12)c1cccc(C(F)F)c1F = 2.61

Next item in the queue.
I have this compound here, `CC(=O)N1CCC(c2cc3c(N[C@H](C)c4cccc(C(F)F)c4F)ccnc3cn2)CC1` , and I need its recorded log10 of AUC at 24 h.
2.76
